# assay summary: small-molecule microarray binders of probe aNog, primary screen, biochemical, biotinylated probe, 635/667 nm fluorescence (AID 1115);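 further: probe is biotinylated aNog protein used at 0.15 µg/mL for 1 h at 4 C; z-score combines 667 nm fluorescence of each spot with its signal to noise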
# stated conditions: higher = more signal
Short version: composite z-score at least 0.06 is 1.0, less is 0.0.

In [3]: df
Out[3]:
                                   compound  assigned_label
0  CC(C)(C)N1C(=O)[C@H]2[C@@H]3C(=CC[C@H]2C1=O)C(=O)[C@H]1O[C@H]1[C@H]3O             0.0
1  O=C1[C@H]2[C@H]3[C@H](O)[C@H](O)CC(=NOC[C@@H](O)COCc4ccco4)[C@@H]3CC[C@H]2C(=O)N1Cc1ccccc1             0.0
2  CCOC(=O)NN=C1C[C@@H](O)[C@@H](O)[C@@H]2[C@@H]3C(=O)N(c4ccc(F)cc4F)C(=O)[C@@H]3CC[C@H]12             1.0
3  CCN1C(=O)[C@H]2[C@H]3[C@H](O)[C@H](O)CC(=NO[C@@H](C)c4cc(-c5c(C)cc(C)cc5C)no4)[C@@H]3CC[C@H]2C1=O             0.0
4  CO[C@@H](C1CCCCC1)[C@@H](C)[C@H](OCc1cccc(Br)c1)[C@@H](C)CO             1.0
5  Cc1cc2c(nc1C)CCCCN2CC(O)CN1CCCc2nc(-c3ccc(Br)cc3)ccc21 (configuration not stated)             1.0
6  CC(C)[C@@H](OCc1ccccc1)[C@H](C)C=NOC[C@@H](O)[C@H]1O[C@@H]2OC(C)(C)O[C@@H]2[C@H]1O             1.0

###

# assay summary: basal RPMI8226 viability, no added stimulus, profiling panel, cell-based, calcein-AM fluorescence, 48 h, PK04 Diversity Set (AID 1166);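 further: cells grown under basal conditions without added stimulus; test concentration not given here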
# stated conditions: RPMI8226 myeloma viability, higher = more signal
Each entry below lists one item and its recorded z-score value.
readout: z-score

molecule	readout	recorded value
COC(=O)[C@H](C)NC(=O)CCC1CC(OC(=O)NCCc2ccc(F)cc2)CC2(CCCC(COC(=O)NCCc3ccccc3OC)O2)O1 (stereo partly specified)	z-score	-0.285
O=C1[C@H]2[C@H]3[C@H](O)[C@H](O)CC(=NOC[C@@H](O)COCc4ccco4)[C@@H]3CC[C@H]2C(=O)N1Cc1ccccc1	z-score	0.693
O=C1[C@H]2[C@H]3[C@H](O)[C@H](O)CC(=NO[C@@H]4O[C@H](CO)[C@@H](O)[C@H](O)[C@H]4O)[C@@H]3CC[C@H]2C(=O)N1c1cccc(Oc2ccccc2)c1	z-score	-0.815
CCN1C(=O)[C@H]2[C@H]3[C@H](O)[C@H](O)CC(=NO[C@@H](C)c4cc(-c5c(C)cc(C)cc5C)no4)[C@@H]3CC[C@H]2C1=O	z-score	-1.14
CCOC(=O)CCN1C(=O)[C@H]2[C@H]3[C@H](O)[C@H](O)CC(=NNC(=O)OCc4ccc(OC)cc4)[C@H]3CC[C@H]2C1=O	z-score	-0.87
CCc1cc2c(nc1CC)CCN(CCC(C)=NO[C@@H]1O[C@H](COC(C)=O)[C@@H](OC(C)=O)[C@H](OC(C)=O)[C@H]1OC(C)=O)C2	z-score	-1.14
O=C1C[C@H](c2ccccc2)[C@H](c2ccc(Br)cc2)O1	z-score	1.08
CC(C)(C)N1C(=O)[C@H]2[C@H]3[C@H](O)[C@H](O)CC(=NNC(=O)OCc4ccccc4)[C@H]3CC[C@H]2C1=O	z-score	-0.934
CC(CCN1CCc2nc(-c3ccccc3)c(-c3ccccc3)cc2C1)=NOC(C)CN1CCCc2nc(C)c(C)cc21 (stereo unspecified)	z-score	-0.616
COCC#Cc1ccc([C@@H]2N[C@H](C(=O)O)CC[C@H]2C)cc1	z-score	1.14
CCOC(=O)[C@H](Cc1ccccc1)NC(=O)CCC1CC(OC(=O)NCc2ccc3c(c2)OCO3)CC2(CCCC(COC(=O)NCCCN3CCCC3=O)O2)O1 (stereo partly specified)	z-score	-1.6

###

# assay summary: basal 3T3-L1 adipocyte mitochondrial potential changes, profiling panel, cell-based, JC-1 fluorescence, 3T3-L1 adipocytes, 24 h, 100 nL compound (AID 1168); further: test concentration not given here
# stated conditions: JC-1 mitochondrial fluorescence, higher = more signal, called active from +8 up or from −8 down
Each entry below lists one item and its recorded z-score value.
readout: z-score

>>> print(df.to_string())
                               given_smiles  recorded_value
0  C=CC[C@@H]1C=C[C@H](Oc2ccc(C)cc2)[C@@H](COC(=O)NCc2cccc3ccccc23)O1          -0.483
1  CO[C@H]1COC(=O)[C@H](CCSC)NC(=O)CC=C[C@@H](C)[C@H](OC)COC(=O)[C@@H](OCc2ccccc2)C=C[C@@H]1C           -1.75
2  O=C1C2=CC[C@H]3C(=O)N(C4CCCCC4)C(=O)[C@H]3[C@H]2[C@H](O)[C@@H]2O[C@H]12            2.71
3  CC(=O)OC[C@H]1O[C@H](CC=NOC[C@@H](O)COCc2ccco2)C=C[C@@H]1OC(C)=O           0.998

###

# Test system: Chordin-like protein 2 (CHRDL2)
# assay summary: CHRDL2 small-molecule binders, primary screen, biochemical, small-molecule microarray, 635 nm fluorescence (AID 1126);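 further: printed compound slides probed with Chrdl2 protein at 4 µg/mL for 1 h at 4 C; score merges 667 nm emission intensity with signal to noise over three replicate slides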
# stated conditions: small-molecule microarray binding, fluorescence 635 nm; higher = more signal
readout: composite z-score

                                    compound  recorded_value
 0  C[C@@H]1CC[C@H]2C(=O)N3[C@@H](CC[C@@H](C)[C@@H]3c3ccc(Br)cc3)C(=O)N2[C@H]1c1ccc(Br)cc1           0.391
 1  COc1ccc(O[C@H]2C=C[C@@H](c3ccccc3)O[C@@H]2CON=C(C)CCN2CCCc3nc(C)c(C)cc32)cc1           0.369
 2  CC(=O)OC[C@H]1O[C@H](CC=NO[C@@H](C)c2cc(-c3c(C)cc(C)cc3C)no2)C=C[C@@H]1OC(C)=O           0.236
 3  COC(=O)[C@H](C)NC(=O)CCC1CC(OC(=O)NCc2ccc3c(c2)OCO3)CC2(CCCC(COC(=O)NCCc3ccc(Cl)cc3)O2)O1 (some centres not stated)            1.26
 4  CC1(C)O[C@H]2O[C@H]([C@H](O)CON=C3[C@H]4CCn5c(=O)n(-c6ccccc6)c(=O)n5[C@H]4[C@H](O)[C@@H]4O[C@H]34)[C@H](O)[C@H]2O1            0.19
 5  CC(C)=CCCC(C)=CCON=C1[C@H]2CCn3c(=O)n(-c4ccccc4)c(=O)n3[C@H]2[C@H](O)[C@@H]2O[C@H]12            1.02
 6  O=C1[C@H]2[C@H]3[C@H](O)[C@H](O)CC(=NO[C@@H]4O[C@H](CO)[C@@H](O)[C@H](O)[C@H]4O)[C@@H]3CC[C@H]2C(=O)N1C1CCCCC1           0.629
 7  CC(CCN1CCCc2nc(C)c(C)cc21)=NOC[C@@H](C)[C@H](OCc1ccccc1)C(C)C          -0.621
 8  COC(=O)[C@@H]1CC[C@H](C)[C@@H](c2ccc(Br)cc2)N1C[C@H](O)CN=[N+]=[N-]           0.101
 9  O=C1C[C@@H](O)[C@@H](O)[C@@H]2[C@@H]3C(=O)N(Cc4ccccc4)C(=O)[C@@H]3CC[C@H]12           0.415
10  C[C@@H](c1ccccc1)N1C(=O)[C@H]2[C@H]3[C@H](O)[C@H](O)CC(=NOC[C@@H](O)COCc4ccco4)[C@H]3CC[C@H]2C1=O            1.51
11  CC(CCN1CCCc2nc(C)c(C)cc21)=NO[C@H](C)c1cn([C@@H]2COC[C@H]2O)nn1           0.854
12           CON=C(C)CCN1CCCCc2nc(C)c(C)cc21           0.873
13  C=CCOCC1CN2[C@@H](CC[C@@H](C)[C@@H]2c2ccc(Br)cc2)C(=O)O1 (some centres not stated)           0.562
14  CC(CCN1CCc2nc(-c3ccccc3)c(-c3ccccc3)cc2C1)=NO[C@@H](C)c1cc(-c2c(C)cc(C)cc2C)no1          -0.583
15  CCOC(=O)CCN1C(=O)[C@H]2[C@H]3[C@H](O)[C@H](O)CC(=NOCC=C(C)CCC=C(C)C)[C@H]3CC[C@H]2C1=O          -0.178
16  C#CCCCON=C1[C@H]2CCn3c(=O)n(Cc4cc5c(cc4Cl)OCO5)c(=O)n3[C@H]2[C@H](O)[C@@H]2O[C@H]12           0.424
17  CCCC[C@H]1CN2[C@@H](CC[C@@H](C)[C@@H]2c2ccc(Br)cc2)C(=O)O1           0.549
18  C=CC[C@@H]1C=C[C@H](ON=C[C@@H](NS(=O)(=O)c2ccc(C)cc2)[C@H](C)C=CCC(=O)OC)[C@@H](CO)O1           0.487
19  CC(C)=NO[C@H](C)c1cn([C@@H]2COC[C@H]2O)nn1           0.655
20  O=C(NN=C1C[C@@H](O)[C@@H](O)[C@@H]2[C@@H]3C(=O)N(Cc4ccccc4)C(=O)[C@@H]3CC[C@H]12)OCc1ccccc1            0.36
21  O=C1CCCC=C1C(O)C1CCCCC1 (configuration not stated)           0.214
22  CCOC(=O)CCN1C(=O)[C@H]2[C@H]3[C@H](O)[C@H](O)CC(=NOCC=C(C)CCC=C(C)C)[C@@H]3CC[C@H]2C1=O           0.434
23  COC(=O)C1=C(C)N(Cc2ccccc2)C2=C3C(=O)OCC[C@@H]3[C@@](O)(C(=O)OC)C(=O)N2[C@@H]1c1ccccc1           0.487
24  CC1(C)O[C@H]2OC([C@H](O)CON3C(=O)c4ccccc4C3=O)[C@H](O)[C@H]2O1 (some centres not stated)          0.0988
25  COC(=O)[C@@H]1CC[C@H](C)[C@@H](c2ccc(Br)cc2)N1           0.322
26  COC(=O)CC=C[C@@H](C)[C@@H](C=NOC[C@@H](O)COCc1ccco1)OC            1.36
